assay: Therapeutic index, ratio of CC50 for human […] cells to EC50 for HIV1-3B; format: cell-based; settings: read-out: Ratio CC50/EC50
Consider the following compounds and their measured selectivity ratio readings.

Use the examples below as a reference point.
> print(dat)
                                   compound    reported.metric   result
1  C/C=C(/C)C(=O)O[C@H]1c2cc3c(c(OC)c2-c2c(cc4c(c2OC)OCO4)C[C@H](C)[C@]1(C)O)OCO3 [INTERIOTHERIN B]  selectivity ratio   > 10.5
2  Cc1cn([C@H]2C[C@H](N=[N+]=[N-])[C@@H](CO)O2)c(=O)[nH]c1=O [ZIDOVUDINE]  selectivity ratio  > 60600

API: the following record is the query input.
Record C=C(C)[C@@H]1CC[C@@H]2[C@]3(CC[C@]4(C)[C@@H]([C@H](C)CC/C=C(/C)C(=O)O)CC[C@@]24C)C[C@]13CCC(=O)O [NIGRANOIC ACID] . Reported selectivity ratio: 8.48
